Where these numbers come from: the domain aggregation screens of Martell et al. (2025)

# PROCEDURE DETAILS: soluble fraction after stress (log2 fold change); higher = more stays soluble; pooled small domains, quantitative proteomics
# TEST CONDITIONS: stress: 50 degC
REPORTED PROPERTY: soluble fraction (log2)
Answer with the value's number alone.

// lookup soluble fraction (log2) for HMPNIQLARNLKYLRLAYGLTQDDLGAFLNISRQAYSNYENLKRSPDLDSLIRLASLYHLSLDDLVSR -3.09

Which soluble fraction (log2) is reported for this sequence? HMQILNVFSKHGIKPISPQIGDKFDPQLHEAMFEAPVPGTKAGDIIEVSSEGFMLYDRLLRPAHVGVSSN 0.0206

State the recorded soluble fraction (log2) for this entry: HMKQNRNLPVQIINNGKIIESVMTEFNLDIDWVYSEAKRLGYKNIKDIFYAGINRDGQFFIVPLF -0.448

###

# PROCEDURE DETAILS: soluble fraction after stress (log2 fold change); higher = more stays soluble; pooled small domains, quantitative proteomics
# TEST CONDITIONS: stress: 50 degC
Param threshold (0.07) applies to soluble fraction (log2); output fulfilled when value >= threshold, not fulfilled when value < threshold.

Check the entry HMISAVDLMAARRKIEAGITNLQPGQAFTLPNKVGWVKRMTGGSYFIQGNGGYTASVRTISEAIQAAAMLL : does soluble fraction (log2) equal or exceed 0.07? not fulfilled

Decide: is the reported value of soluble fraction (log2) for HMGLVLIDSYNDIGSAKLITNKIRNLGLIFEENENKINVFAGPFEKNDINLKIDFLIRNGYTNAQLY equal to or greater than 0.07? not fulfilled

Given the entry HMVSEASELTDTINKIGSLAQALVGANKLSKTDLVGIIKKYHTSANYNSITDIGVAKNILAELEAKN , answer whether its soluble fraction (log2) meets or surpasses 0.07. fulfilled

Hello, I need to know if HMVNSADLAAKPFIDLLVSTRQQLREAKQYDLADTIRDELTNHGITIEDKPQGSEWQYEFNPNS has measured soluble fraction (log2) not below 0.07. Thanks! fulfilled

Has HMGQPGNWTSYVFKNSDTEPAKPTSSGPIPSGWNDAPTGVGIWWMSKATIDASTGKAGSWSTPIRVTGED a recorded soluble fraction (log2) greater than or equal to 0.07? not fulfilled

Does the reported soluble fraction (log2) for HMLVVEPSAELKTIIDKTASFVARNGPEFEARIKNEQNNAKFSFLQPNDPFNPYYRAKIVELGGTV fall at or above the 0.07 mark? not fulfilled

In plain terms: is recorded soluble fraction (log2) at least 0.07 for HMSKKIVLPAAITVKKFSETLDMPLGTVISELMKNGILATINERIDFETASIIAQDLGYEVSEEV ? fulfilled

###

# PROCEDURE DETAILS: soluble fraction after stress (log2 fold change); higher = more stays soluble; pooled small domains, quantitative proteomics
# TEST CONDITIONS: stress: 50 degC
REPORTED PROPERTY: soluble fraction (log2)
Answer with a number only.

// query soluble fraction (log2) value for entry HMGDSVLNDKLNTLAGLDEERFKWVLASLNPNNSYSTHSDKMSALMWLVSYFNDEADLKETVPPLPI -0.0724

// query soluble fraction (log2) value for entry HMAVWRIKVNYIPGYGVNIWSSYKNGHFTGKRAMHGETYEVLETKKDQDGNTWYKLDDHQWIEGRYAINAK -0.466

Please give the measured soluble fraction (log2) for this sequence: HMHSLLDDIPNVGEKRKRILLTHFQSLEEIKAATVEELERLPQINRKAAESIYTFFHSQPIR -0.0679

For the sequence HMIIVMRKGATEAQVNDIVERVRAAGFGVHLSQGEERTIIGAIGGDRAVLADLNLEAAPGVERVTPIS , what soluble fraction (log2) is on record? 0.0417

Need soluble fraction (log2) of HMVLVGERRQKILEVVSSGKAVTVEELSRILHVSPSTVRRDLRFLESRGLLYRTHGGAMPPV , thanks. -1.1

I am curious: what soluble fraction (log2) value has been reported for HMEEQKYEYHLGDVVYLGVDKYEILGITNNIVTLYDPEFPLLNKQLDFDEFEKRVKDNYANEHLKVT ? -0.429

I'd like to know its soluble fraction (log2). The sequence in question is HMHGEAEFLDATAVVMEKLNPGGLVKIKGEIWQAVSKDGHTIQEGEKVRVFERQGITLLVGHF -0.171

###

# PROCEDURE DETAILS: soluble fraction after stress (log2 fold change); higher = more stays soluble; pooled small domains, quantitative proteomics
# TEST CONDITIONS: stress: 50 degC
Provide the reported soluble fraction (log2) of each item.
Hey, just send me the number, nothing else.

What value of soluble fraction (log2) has been recorded for this entry: HMLPTVSITGHIFIRSGSPLNRIFVGEKIYHVGDHIDRDWVIESIGIDTLTIRSGTLSTQLPL -2.87

Quick one: soluble fraction (log2) of HMETLKLRDSGKEVQSLQELLQRQGLSAPMNGIFDEATKSSVIAFQKANGLDADGIVGYKSWETLFTAG ? 0.132

Please report the recorded soluble fraction (log2) for HMKGTLPEMITSREEVVLKFMVNGWDAKRIASELDISVLTVRKHIANIYEKLHVQSKAEIISMAHQQKWFN . -1.52

Find the recorded soluble fraction (log2) belonging to HMRIYTKDEYLAELSRYLHKLPQDDYESAMAYFREYFEEAGPENEAQAMRDLGTPKEAASEILQNLLH and report it. -0.305

Quick one: soluble fraction (log2) for HMSVLPAREQVAAILRQAILLRKFKEGQDLTLKDAAELVGSSITPVREAFQILENEGLIELRPNKGAVVL ? -0.284

Fill in: soluble fraction (log2) of HMSPSSPNQILGQYPKTKNDIILSSGRYGPYLKYNKKNYSLGNNISVEKLSLEEAVKIIDLKDKK is ___ 0.0457

Which measured soluble fraction (log2) value corresponds to HMDRSVTAAELRLAAMDLLARREHGSQELEAKLSRRFHKRHYDVELLRSVIEQLTVEGLLSDERFAVS ? -0.154

Query (sequence): HMIIYGLNPVKDFINLFPNKISTLFISKNKLSDSEMKSVVNINTVYVSDAELKRITGTTKHQSLAAEID ; field requested: soluble fraction (log2) -1.21

If you can, please state the reported soluble fraction (log2) value of HMELSAEGWVDGTGVRMRASASTDSEVVRVTEDGESLDITGVSGTWYRVTAGGVSGYIRSDYVSLEEP . -0.287

Please give the measured soluble fraction (log2) for this sequence: HMGDFLLTPHRGRSADFVIGNPPYIRLEDVPNDISDAYRAEYASMPGRADIHVGFYEKGLDL -0.142

Can you share its soluble fraction (log2)? I mean this sequence: HMNPSRPASKEELLGLFEHLERALDAVTFFRPAEKKPVVVQTLRAMLTKASFTEQDIRTMRGVIAALEN -1.5

Which value of soluble fraction (log2) has been reported for HMQAGILTDTAAKNARIKKIDTERLEAELDQKRIVIVTGFQGVDRNQNITTLGRGGSDTSAVALAAAVSIT in the records? 0.185

So what's the measured soluble fraction (log2) for this one? HMKTFSTRLIALREAIGVNQSELARRVGVTPQAVQKWESGANGPRGKRLEKLASELRSTVGYLVSGEGDG -0.446

Fill blank: measured soluble fraction (log2) of the sequence HMTDVGLEAAKAAALKHAGLSADQVTGLTAKLDWDDGQRVYEVDFWQGSTEYEYEINADGTVRQYESEAH is ____. 0.228

###

# PROCEDURE DETAILS: soluble fraction after stress (log2 fold change); higher = more stays soluble; pooled small domains, quantitative proteomics
# TEST CONDITIONS: stress: 50 degC
Note to self: values exactly at -2 are T. So soluble fraction (log2) at or above -2 is T, below is F.

Does the sequence HMVSDISTQYQKIINEALDKQPEVKLADIVTMIKEQTSNKVQNGIVENVAKQMNGIEIIKIGQAKGVRRTT have recorded soluble fraction (log2) that is -2 or more? T

Does the sequence HMKLHPRDQERTRAISARGERLYAVTVGDLRRRIGEMLEWFGRQIESQEPMRVAKAARRITDFFDQVEAFT have recorded soluble fraction (log2) that is -2 or more? F

Exam item: decide whether the reported soluble fraction (log2) for HMSSVRDNGDLELVPGDRIRHDDYGEGRVTAVTGVGSKRIAHAVFDSVGERKLLIKLSPIEKI is at least -2. T

Entry HMRYLMPDLVNRRYEPVRSLLEARGIRFGNVIFEPYEGLPPGIVLRQDPPAGHPLPRRRTVSLVVSGPGGR : is its soluble fraction (log2) no less than -2? T

Record HMRSFADEGTVEEWIKQAIRENEAAVADYRKGKETAVKFLMGQVMRLSKGEANPADLEDKIKAKLD ; criterion: soluble fraction (log2) no lower than -2. Met? T

###

# PROCEDURE DETAILS: soluble fraction after stress (log2 fold change); higher = more stays soluble; pooled small domains, quantitative proteomics
# TEST CONDITIONS: stress: 50 degC
REPORTED PROPERTY: soluble fraction (log2)
Answer with a bare number; do not write a unit.

Which soluble fraction (log2) is reported for this sequence? HMHPDHRTATVPDAAAGRRFDAVLAELFPQFSRSKLTTWIKSGEVLLNGEVPRPRDAVVGGETVSLNVVL -0.275

May I ask what soluble fraction (log2) has been recorded for HMDIYLDDINRKILHLLSQGVKTKSLRDYIDLSMSAIEKRKKHLKDLFLIEDGKDETLLSEARKKGF ? -0.672

For HMEHIVNELDRKVIDYLQSHYDAKLNDIAQGIGVSKATATKSIRKLVQTGIVHVVGSSGTGTSYNLTE , what is its reported soluble fraction (log2)? -0.152

Name the recorded soluble fraction (log2) for HMSNFGALLRMRRLEAGLSYRGLAEQSGLARATLVNLEQGLTKPSPLTMRRLASVKALRLTEL . -2.26

Find the recorded soluble fraction (log2) belonging to HMETADREILLREIREIINERVDYNKDITDDEMKELVMNTVFERSRQQYMSIQDKQEIIQAIFNSMR and report it. 0.126

Requested field: soluble fraction (log2). Item: HMTDGLTVPMQGVVIRYKAKKGDKVAVGDAVAVLEAMKMEQNIFANKSGTIKEIYIKEGTTVTPGDVLMSI -0.0052
